- measured_on: MAGL (Mus musculus, UniProt O35678)
- Construct: mouse brain membrane fraction or cell lysates for mouse assays; from tissue
- assay_info: In vitro competitive activity-based protein profiling, mouse MAGL
- Assay type: biochemical
- assay_setup: 1 μM, read-out: MAGL % inh. 1 μM (mouse)
- Method: In Vitro Competitive Activity-Based Protein Profiling. Proteomes (mouse brain membrane fraction or cell lysates for mouse assays; human prefrontal cortex or cell membrane fractions for human assays) (50 μL, 1.0 mg/mL total protein concentration) were preincubated with varying concentrations of inhibitors at 37° C. […] Following gel imaging, serine hydrolase activity was determined by measuring fluorescent intensity of gel bands corresponding to MAGL and FAAH using ImageJ 1.43u software.
measurement_label: inhibition at 1 µM

Below, each entry is followed by its recorded inhibition at 1 µM result.
compound	inhibition at 1 µM
O=C(N1CC2CN(Cc3cccc(N4CCOCC4)c3)CC2C1)n1cc(C(F)(F)F)cn1 (stereo not drawn)	≥ 75%
O=C(c1cnn(C(=O)N2CCC3(CCN(Cc4cccc(C(F)(F)F)c4)C3)C2)c1)N1CCCC1 (stereo not drawn)	25 to 50%

Consider the additional compound presented here.
(Q) Report inhibition at 1 µM for NC(=O)c1cnn(C(=O)N2CCC3(CCN(Cc4cc(Cl)ccc4Cl)C3)C2)c1 (stereo not drawn) please.
(A) ≥ 75%

###

- measured_on: MAGL (Mus musculus)
- Construct: mouse brain membrane fraction or cell lysates for mouse assays
- Sequence (O35678 1-303): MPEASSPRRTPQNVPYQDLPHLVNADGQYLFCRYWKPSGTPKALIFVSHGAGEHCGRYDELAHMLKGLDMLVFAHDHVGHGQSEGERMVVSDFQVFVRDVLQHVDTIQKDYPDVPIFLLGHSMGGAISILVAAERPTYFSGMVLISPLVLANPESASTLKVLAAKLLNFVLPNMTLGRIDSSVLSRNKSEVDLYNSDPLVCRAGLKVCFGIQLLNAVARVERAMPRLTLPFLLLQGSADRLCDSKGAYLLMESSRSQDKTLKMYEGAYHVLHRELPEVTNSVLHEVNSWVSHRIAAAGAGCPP
- assay_info: In vitro competitive activity-based protein profiling, mouse MAGL
pIC50: −log10 of the molar value.
measurement_label: pIC50

compound	measured_on	measurement_label	readout_value
O=C(N1CC2CN(Cc3ccccc3N3CCCC3)CC2C1)n1cc(C(F)(F)F)cn1 (stereo not drawn) [Example 156]	MAGL (Mus musculus)	pIC50	≥ 7.00
O=C(N1CC2CN(Cc3ccc(Cl)cc3N3CCCC3)CC2C1)n1cc(Cl)cn1 (stereo not drawn) [Example 101]	MAGL (Mus musculus)	pIC50	≥ 7.00
O=C(N1CCC2(CCN(Cc3ccc(Cl)c(Cl)c3)C2)C1)n1cc(Cl)cn1 (single isomer, unassigned) [Example 140]	MAGL (Mus musculus)	pIC50	≥ 7.00
CC(=O)N(Cc1ccc(Cl)cc1)[C@@H]1C[C@@H]2CN(C(=O)n3cc(Cl)cn3)C[C@@H]2C1 [Example 69]	MAGL (Mus musculus)	pIC50	≥ 7.00

(Q) Report pIC50 for CN(Cc1cccc(Cl)c1)[C@@H]1C[C@@H]2CN(C(=O)n3cc(Cl)cn3)C[C@@H]2C1 [Example 65] please.
(A) ≥ 7.00

(Q) Report pIC50 for O=C(N1CC2CN(Cc3cccc(N4CCOCC4)c3)CC2C1)n1cc(C(F)(F)F)cn1 (stereo not drawn) [Example 145] please.
(A) ≥ 7.00

(Q) Report pIC50 for O=C(c1cnn(C(=O)N2CCC3(CCN(Cc4ccc(N5CCOCC5)cc4C(F)(F)F)C3)C2)c1)N1CCCC1 (stereo not drawn) [Example 50] please.
(A) 6.00 to 7.00

(Q) Report pIC50 for CN(Cc1ccc(C(F)(F)F)cc1)[C@@H]1C[C@@H]2CN(C(=O)n3cc(Cl)cn3)C[C@@H]2C1 [Example 76] please.
(A) ≥ 7.00

(Q) Report pIC50 for O=C(N1CCC2(CCN(Cc3cccc(Cl)c3)C2)C1)n1cc(Cl)cn1 (single isomer, unassigned) [Example 133] please.
(A) 6.00 to 7.00

(Q) Report pIC50 for O=C(N1C[C@H]2C[C@H](NCc3ccc(Cl)cc3)C[C@H]2C1)n1cc(Cl)cn1 [Example 73] please.
(A) 6.00 to 7.00

(Q) Report pIC50 for CN(Cc1ccc(N2CCOCC2)cc1)[C@@H]1C[C@@H]2CN(C(=O)n3cc(Cl)cn3)C[C@@H]2C1 [Example 77] please.
(A) 5.00 to 6.00

(Q) Report pIC50 for COc1ccccc1CN1CC2CN(C(=O)n3cc(C(F)(F)F)cn3)CC2C1 (stereo not drawn) [Example 154] please.
(A) ≥ 7.00
